We begin with a simple list: items and their reported Ki.
target: Neurotensin receptor type 1 (Homo sapiens, UniProt P30989); experiment: Displacement of [3H]NT(8-13) from human NTSR1 F2.65C mutant expressed in HEK293 cell membranes by radioligand displacement assay; set-up: species or system Cell membrane
Sequence (P30989 whole entry, looked up): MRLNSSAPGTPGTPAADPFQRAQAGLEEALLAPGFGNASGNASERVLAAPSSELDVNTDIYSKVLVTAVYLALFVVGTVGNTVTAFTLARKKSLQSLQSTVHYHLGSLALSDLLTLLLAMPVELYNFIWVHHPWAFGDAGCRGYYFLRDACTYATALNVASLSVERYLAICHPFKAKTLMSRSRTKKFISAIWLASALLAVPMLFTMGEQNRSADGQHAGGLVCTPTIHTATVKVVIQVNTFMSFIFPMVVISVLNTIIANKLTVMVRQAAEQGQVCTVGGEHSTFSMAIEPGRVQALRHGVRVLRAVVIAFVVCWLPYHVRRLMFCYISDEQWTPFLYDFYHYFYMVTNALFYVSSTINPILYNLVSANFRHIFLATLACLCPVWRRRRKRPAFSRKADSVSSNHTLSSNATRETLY
*1 amine or outer side, *2 acyl side, *3 side chain or, on linkers, in order; H or OH if unused. Where a SMILES comes first, the peptide text is derived from it. Cysteamine = C(CS[*:2])N[*:1]
I only need the number, in nM, no unit after it.

Sample answers from the record:
compound	assay.target	property.measured	unit.string	measured.number
CC(C)C[C@H](NC(=O)[C@H](CSSCCN)NC(=O)[C@H](Cc1ccc(O)cc1)NC(=O)[C@@H]1CCCN1C(=O)[C@H](CCCNC(=N)N)NC(=O)[C@@H](N)CCCNC(=N)N)C(=O)O	Neurotensin receptor type 1 (Homo sapiens, UniProt P30989)	Ki	nM	28
CC(C)C[C@H](NC(=O)[C@@H](CCSSCCN)NC(=O)[C@H](Cc1ccc(O)cc1)NC(=O)[C@@H]1CCCN1C(=O)[C@H](CCCNC(=N)N)NC(=O)[C@@H](N)CCCNC(=N)N)C(=O)O	Neurotensin receptor type 1 (Homo sapiens, UniProt P30989)	Ki	nM	15
CC[C@H](C)[C@H](NC(=O)[C@H](Cc1ccc(O)cc1)NC(=O)[C@@H]1CCCN1C(=O)[C@H](CCCNC(=N)N)NC(=O)[C@@H](N)CCCNC(=N)N)C(=O)N[C@@H](CC(C)C)C(=O)N[C@H](CCSSCCN)C(=O)O	Neurotensin receptor type 1 (Homo sapiens, UniProt P30989)	Ki	nM	40

Turning now to a further compound:
State the recorded Ki for this entry: CC[C@H](C)[C@H](NC(=O)[C@H](Cc1ccc(O)cc1)NC(=O)[C@@H]1CCCN1C(=O)[C@H](CCCNC(=N)N)NC(=O)[C@@H](N)CCCNC(=N)N)C(=O)N[C@@H](CC(C)C)C(=O)N[C@@H](CSSCCN)C(=O)O (H-RRPYILC(Cysteamine)-OH) 51
